target: full-length beta-Catenin (Uniprot ID P35222) (Homo sapiens, UniProt P35222); construct: 10 nM full-length beta-Catenin (Uniprot ID P35222); test: Fluorescence polarization IC50 (beta-catenin / 5FAM-TCF4 10-53 competition); format: binding; conditions: read-out: beta-Catenin FP IC50
Sequence (P35222 whole entry): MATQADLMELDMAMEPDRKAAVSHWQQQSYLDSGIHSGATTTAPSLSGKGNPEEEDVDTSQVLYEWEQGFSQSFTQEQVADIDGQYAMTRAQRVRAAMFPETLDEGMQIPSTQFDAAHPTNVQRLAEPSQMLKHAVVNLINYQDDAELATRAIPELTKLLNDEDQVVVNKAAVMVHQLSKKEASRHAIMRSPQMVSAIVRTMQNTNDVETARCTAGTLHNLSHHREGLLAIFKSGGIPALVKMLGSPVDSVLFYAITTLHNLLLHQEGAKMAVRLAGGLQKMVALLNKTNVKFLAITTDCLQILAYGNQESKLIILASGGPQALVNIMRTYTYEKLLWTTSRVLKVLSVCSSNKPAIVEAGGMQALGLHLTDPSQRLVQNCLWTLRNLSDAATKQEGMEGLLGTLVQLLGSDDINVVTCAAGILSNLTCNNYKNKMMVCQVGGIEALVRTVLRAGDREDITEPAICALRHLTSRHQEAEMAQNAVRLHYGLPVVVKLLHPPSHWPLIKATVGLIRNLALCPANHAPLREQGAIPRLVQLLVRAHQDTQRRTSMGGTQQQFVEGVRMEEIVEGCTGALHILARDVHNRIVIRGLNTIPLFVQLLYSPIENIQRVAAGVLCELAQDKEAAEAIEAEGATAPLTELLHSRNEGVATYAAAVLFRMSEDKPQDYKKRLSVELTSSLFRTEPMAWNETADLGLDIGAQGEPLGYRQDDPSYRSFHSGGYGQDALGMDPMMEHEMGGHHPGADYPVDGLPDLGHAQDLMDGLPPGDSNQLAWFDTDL
Readings of pIC50 for the listed compounds
// pIC50 here means minus log10 of the molar concentration (mol/L)

Guide cases for pIC50, answers given:
CC(=O)N1CCC[C@]12CC=CCCCC1(CCCC=CCCCOC(=O)N3CC[C@@](C(=O)N[C@@H](Cc4ccsc4)C(=O)N[C@@H](Cc4csc5ccccc45)C(N)=O)(C3)NC(=O)[C@H](CC(N)=O)NC(=O)[C@H](Cc3ccccc3)NC(=O)[C@H](C)NC(=O)[C@H](C)NC(=O)[C@H](Cc3c[nH]cn3)NC(=O)[C@H](CC(=O)O)NC1=O)NC(=O)[C@H](CC(C)(C)C)NC(=O)[C@H](CC(=O)O)NC2=O (stereo partly drawn) [I-863]: 7.66
CC(=O)N1CCC[C@]12CC=CCCCC1(CCCC=CCCCOC(=O)N3CC[C@@](C(=O)N[C@@H](Cc4ccccc4Cl)C(=O)N[C@@H](Cc4csc5ccccc45)C(=O)N[C@@H](CCC(N)=O)C(N)=O)(C3)NC(=O)[C@H]([C@@H](C)O)NC(=O)[C@H](Cc3ccccc3)NC(=O)[C@H](C)NC(=O)[C@H](C)NC(=O)[C@H](CC(=O)O)NC(=O)[C@H](CC(=O)O)NC1=O)NC(=O)[C@H](CC(C)(C)C)NC(=O)[C@H](CC(=O)O)NC2=O (stereo partly drawn) [I-1013]: 8.10

// next entry
// lookup pIC50 for CC(=O)N1CCC[C@]12CC=CCCCC1(CCCC=CCCCOC(=O)N3CC[C@@](C(=O)N[C@@H](Cc4ccsc4)C(=O)N[C@@H](Cc4csc5ccccc45)C(=O)N[C@@H](CCC(N)=O)C(N)=O)(C3)NC(=O)[C@H](Cc3ccccc3)NC(=O)[C@H](Cc3ccccc3)NC(=O)[C@H](C)NC(=O)[C@H](C)NC(=O)[C@H](Cc3ccc(C(=O)O)cc3)NC(=O)[C@H](CC(=O)O)NC1=O)NC(=O)[C@H](CC(C)(C)C)NC(=O)[C@H](CC(=O)O)NC2=O (stereo partly drawn) [I-850] 7.59

====

Readings of Solubility for the listed compounds
experiment: Solubility in PBS; assay type: physicochemical

Guide cases for Solubility, answers given:
CC(=O)N1CCC[C@]12CC=CCCCC1(CCCC=CCCCCCC[C@@](C)(C(=O)N[C@@H](CCc3ccccc3)C(=O)N[C@@H](Cc3csc4ccccc34)C(=O)N[C@@H](CCC(N)=O)C(N)=O)NC(=O)[C@H](CC(N)=O)NC(=O)[C@H](Cc3ccccc3)NC(=O)[C@H](C)NC(=O)[C@H](C)NC(=O)[C@H](CCC(=O)O)NC(=O)[C@H](CC(=O)O)NC1=O)NC(=O)[C@H](C)NC(=O)[C@H](CC(=O)O)NC2=O (some centres unmarked) [I-442]: 40 µM
CC(=O)N1CCC[C@]12CC=CCCCC1(CCCC=CCCCCCC[C@@](C)(C(=O)N[C@@H](Cc3ccccc3)C(=O)N[C@@H](Cc3csc4ccccc34)C(=O)N[C@@H](CCC(N)=O)C(N)=O)NC(=O)[C@H](CCC(N)=O)NC(=O)[C@H](Cc3ccccc3)NC(=O)[C@H](C)NC(=O)[C@H](C)NC(=O)[C@H](CCC(=O)O)NC(=O)[C@H](CC(=O)O)NC1=O)NC(=O)[C@H](C(C)C)NC(=O)[C@H](CC(=O)O)NC2=O (some centres unmarked): 50 µM
CC[C@@H]1NC(=O)[C@H](CC(=O)O)NC(=O)[C@]2(CC=CCCCC3(CCCC=CCCCCCC[C@@](C)(C(=O)N[C@@H](Cc4ccccc4)C(=O)N[C@@H](Cc4csc5ccccc45)C(=O)N[C@@H](Cc4c[nH]cn4)C(N)=O)NC(=O)[C@H](CCC(N)=O)NC(=O)[C@H](Cc4ccccc4)NC(=O)[C@H](C)NC(=O)[C@H](C)NC(=O)[C@H](CCC(=O)O)NC(=O)[C@H](CC(=O)O)NC3=O)NC1=O)CCCN2C(C)=O (some centres unmarked): 24 µM
CC[C@H](C)[C@@H]1NC(=O)[C@H](CC(=O)O)NC(=O)[C@]2(CC=CCCCC3(CCCC=CCCCCCC[C@@](C)(C(=O)N[C@@H](Cc4ccccc4)C(=O)N[C@@H](Cc4ccccc4)C(=O)N[C@@H](CCC(N)=O)C(N)=O)NC(=O)[C@H](CCC(N)=O)NC(=O)[C@H](Cc4csc5ccccc45)NC(=O)[C@H](C)NC(=O)[C@H](C)NC(=O)[C@H](CCC(=O)O)NC(=O)[C@H](CC(=O)O)NC3=O)NC1=O)CCCN2C(C)=O (some centres unmarked) [I-586]: 50 µM

// lookup Solubility for CO[C@H](C)[C@@H]1NC(=O)[C@H](CC(=O)O)NC(=O)[C@]2(CC=CCCCC3(CCCC=CCCCCCC[C@@](C)(C(=O)N[C@@H](Cc4ccccc4)C(=O)N[C@@H](Cc4csc5ccccc45)C(=O)N[C@@H](CCC(N)=O)C(N)=O)NC(=O)[C@H](CCC(N)=O)NC(=O)[C@H](Cc4ccccc4)NC(=O)[C@H](C)NC(=O)[C@H](C)NC(=O)[C@H](CCC(=O)O)NC(=O)[C@H](CC(=O)O)NC3=O)NC1=O)CCCN2C(C)=O (some centres unmarked) [I-541] 50 µM

====

experiment: CHI Log D procedure; type: physicochemical; conditions: pH 7.4
Cut-off 2 on CHI Log D, inclusive. At or above means Yes; below means No.

CC(=O)N1CCC[C@]12CC=CCCCC1(CCCC=CCCCCCC[C@@](C)(C(=O)N[C@@H](Cc3ccccc3)C(=O)N[C@@H](Cc3csc4ccccc34)C(=O)N[C@@H](CCC(N)=O)C(N)=O)NC(=O)[C@H](C)NC(=O)[C@H](Cc3c[nH]cn3)NC(=O)[C@H](C)NC(=O)[C@H](C)NC(=O)[C@H](CC(=O)O)NC(=O)[C@H](CC(=O)O)NC1=O)NC(=O)[C@H](C)NC(=O)[C@H](CC(=O)O)NC2=O (stereo partly shown) [I-364]: Yes
CC(=O)N1CCC[C@]12CC=CCCCC1(CCCC=CCCCCCC[C@@](C)(C(=O)N[C@@H](Cc3ccccc3)C(=O)N[C@@H](Cc3c[nH]c4ccccc34)C(=O)N[C@@H](CCC(N)=O)C(N)=O)NC(=O)[C@H](C(C)C)NC(=O)[C@H](Cc3ccccc3)NC(=O)[C@H](C)NC(=O)[C@H](C)NC(=O)[C@H](CCC(N)=O)NC(=O)[C@H](CC(=O)O)NC1=O)NC(=O)[C@H](C)NC(=O)[C@H](CC(=O)O)NC2=O (stereo partly shown) [I-126]: Yes
CC(=O)N[C@@H](Cc1ccccc1)C(=O)N[C@@H](CC(=O)O)C(=O)N[C@@H](C)C(=O)N[C@]1(C)CCCCCCC=CCOC(=O)N2CC[C@@](C(=O)N[C@@H](Cc3ccccc3)C(=O)N[C@@H](Cc3c[nH]c4ccccc34)C(=O)N[C@@H](CCC(N)=O)C(N)=O)(C2)NC(=O)[C@H]([C@@H](C)O)NC(=O)[C@H](Cc2ccccc2)NC(=O)[C@H](C)NC(=O)[C@H](C)NC(=O)[C@H](CC(=O)O)NC(=O)[C@H](CC(=O)O)NC1=O [I-224]: No
CC(=O)N1CCC[C@]12CC=CCCCC1(CCCC=CCCCCCC[C@@](C)(C(=O)N[C@@H](Cc3ccccc3)C(=O)N[C@@H](Cc3c[nH]c4ccccc34)C(=O)N[C@@H](CCC(N)=O)C(N)=O)NC(=O)[C@H](C(C)C)NC(=O)[C@H](Cc3cc(F)c(F)c(F)c3)NC(=O)[C@H](C)NC(=O)[C@H](C)NC(=O)[C@H](CCC(=O)O)NC(=O)[C@H](CC(=O)O)NC1=O)NC(=O)[C@H](C)NC(=O)[C@H](CC(=O)O)NC2=O (stereo partly shown) [I-211]: Yes
CC(=O)N1CCC[C@]12CC=CCCCC1(CCCC=CCCCCCC[C@@](C)(C(=O)N[C@@H](Cc3ccccc3)C(=O)N[C@@H](Cc3csc4ccccc34)C(=O)N[C@@H](CCC(N)=O)C(N)=O)NC(=O)[C@H](CC(N)=O)NC(=O)[C@H](Cc3ccccc3)NC(=O)[C@H](C)NC(=O)[C@H](C)NC(=O)[C@H](CC(=O)O)NC(=O)[C@H](CC(=O)O)NC1=O)NC(=O)[C@H](CC(C)C)NC(=O)[C@H](CC(=O)O)NC2=O (stereo partly shown) [I-563]: Yes
CC(=O)N1CCC[C@]12CC=CCCCC1(CCCC=CCCCCOC(=O)N3CC[C@@](C(=O)N[C@@H](Cc4ccsc4)C(=O)N[C@@H](Cc4csc5ccccc45)C(=O)N[C@@H](CCC(N)=O)C(=O)N[C@H](C)C(N)=O)(C3)NC(=O)[C@H](CC(N)=O)NC(=O)[C@H](Cc3ccccc3)NC(=O)[C@H](C)NC(=O)[C@H](C)NC(=O)[C@H](CC(=O)O)NC(=O)[C@H](CC(=O)O)NC1=O)NC(=O)[C@H](CC(C)(C)C)NC(=O)[C@H](CC(=O)O)NC2=O (stereo partly shown) [I-831]: Yes
CC(=O)N[C@@H](Cc1ccccc1)C(=O)N[C@@H](CC(=O)O)C(=O)N[C@@H](C)C(=O)N[C@]1(C)CCCCCCC=CCOC(=O)N2CC[C@@](C(=O)N[C@@H](Cc3ccccc3)C(=O)N[C@@H](Cc3c[nH]c4ccccc34)C(=O)N[C@@H](CCC(N)=O)C(N)=O)(C2)NC(=O)[C@H](C(C)C)NC(=O)[C@H](Cc2ccccc2)NC(=O)[C@H](C)NC(=O)[C@H](C)NC(=O)[C@H](CCC(N)=O)NC(=O)[C@H](CC(=O)O)NC1=O: No

Let's switch to this compound now.
Check this compound for CHI Log D at or above 2: CC(=O)N1CCC[C@]12CC=CCCCC1(CCCC=CCCCOC(=O)N3CC[C@@](C(=O)N[C@@H](Cc4ccccc4Cl)C(=O)N[C@@H](Cc4csc5ccccc45)C(=O)N[C@H](C(N)=O)[C@@H](C)O)(C3)NC(=O)[C@H](CC(C)C)NC(=O)[C@H](Cc3ccccc3)NC(=O)[C@H](C)NC(=O)[C@H](C)NC(=O)[C@H](CC(=O)O)NC(=O)[C@H](CC(=O)O)NC1=O)NC(=O)[C@H](CC(C)(C)C)NC(=O)[C@H](CC(=O)O)NC2=O (stereo partly shown) [I-1069] Yes
